Cited source: the RNAGym collection of RNA variant scans (doi:10.1038/nmeth.2970)

B1: NELF-E aptamer (parent)
chain: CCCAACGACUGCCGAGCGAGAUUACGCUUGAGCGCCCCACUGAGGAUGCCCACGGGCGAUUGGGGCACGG

variants of: B1; experiment: HiTS-RAP; conditions: with NELF-E (Drosophila)
In plain terms, low Kd, meaning strictly below 8 nM, gives 1, and everything else gives -1.

mutation_id="A4U A5G" classification=1
mutation_id="A4G G16A" classification=1
mutation_id="C6U C17G" classification=1
mutation_id="U23G G26A" classification=1
mutation_id="A5C U29G" classification=1
mutation_id="G14U A15U" classification=1
mutation_id="C9G G63A" classification=-1
mutation_id="U10G U60C" classification=-1
mutation_id="A4G A43G" classification=-1
mutation_id="G55A G65U" classification=1
mutation_id="U10C G64A" classification=-1
mutation_id="C13G C37G" classification=1
mutation_id="A8G G48A" classification=-1
mutation_id="C13G U23A" classification=1
mutation_id="U10A A39G" classification=-1
mutation_id="A4G C25A" classification=1
mutation_id="C13U A19G" classification=1
mutation_id="A5U G63U" classification=-1
mutation_id="U10A A31G" classification=-1
mutation_id="A8G C36U" classification=1
mutation_id="C9G G55U" classification=-1
mutation_id="C40U U41G" classification=1
mutation_id="U29G U41C" classification=-1
mutation_id="G34A A67U" classification=-1
mutation_id="A4G C66G" classification=1
mutation_id="G16U C17G" classification=1
mutation_id="A4G G58U" classification=-1
mutation_id="G45U A46G" classification=1
